These measurements were taken from paper PMC3183052.

Target: HLA-A*0201 (Homo sapiens, UniProt P04439, D140Y/D185E/D98H/E176V/E277Q/G131W/G231S/I119V/I121R/I166T/I218V/L300P/L318F/N151K/N90K/P208A/P217A/Q86G/Q94H/R138H/R169H/T345S)
Construct: Human T2 cells (purchased from the American Type Culture Collection, ATCC) (ATCC No. CRL-1992) expressing the HLA-A*0201 gene; endogenous in cells; host or cells: human T2 cells (ATCC CRL-1992)
Experiment: T2 cell-stabilization assay (T2-binding)
Details: T2 cells 5×10^5, peptide 50 µg/mL + β2-microglobulin 5 µg/mL, 28°C 16–18 h, then brefeldin A 10 µg/mL 37°C 3 h; FITC anti-HLA-A2, flow cytometry; MFI relative to negative control HCV C55-74 (set as 1)
measuredMetric: T2-binding Ratio of MFI

> print(dat)
                                  substance  result
1  21: HLA-A*0201-restricted 9-mer synthetic peptide from F protein of RSV-B1 strain (IIIVIIVIL) [compound 21]    0.88
2  TLLLWVLLL [peptide 1, HLA-A*0201-restricted 9-mer synthetic peptide from F protein of RSV-B1 strain]    1.19
3  19: HLA-A*0201-restricted 9-mer synthetic peptide from F protein of RSV-B1 strain (KINQSLAFI) [compound 19]    1.08
4  20: HLA-A*0201-restricted 9-mer synthetic peptide from F protein of RSV-B1 strain (IMITTIIIV) [compound 20]    1.03
5  9: HLA-A*0201-restricted 9-mer synthetic peptide from F protein of RSV-B1 strain (LLSTNKAVV) [compound 9]    1.53
6  4: HLA-A*0201-restricted 9-mer synthetic peptide from F protein of RSV-B1 strain (ELDKYKNAV) [compound 4]    0.94

###

Molecular target: HLA-A*0201 (Homo sapiens, UniProt P04439, D140Y/D185E/D98H/E176V/E277Q/G131W/G231S/I119V/I121R/I166T/I218V/L300P/L318F/N151K/N90K/P208A/P217A/Q86G/Q94H/R138H/R169H/T345S)
Construct: Human T2 cells (purchased from the American Type Culture Collection, ATCC) (ATCC No. CRL-1992) expressing the HLA-A*0201 gene; endogenous in cells; host or cells: human T2 cells (ATCC CRL-1992)
Assay: T2 cell-stabilization assay (T2-binding)
Conditions: T2 cells 5×10^5, peptide 50 µg/mL + β2-microglobulin 5 µg/mL, 28°C 16–18 h, then brefeldin A 10 µg/mL 37°C 3 h; FITC anti-HLA-A2, flow cytometry; MFI relative to negative control HCV C55-74 (set as 1)
Protocol: T2 cells (5×10^5) cultured in 96-well U-bottom plates were incubated with the individual 9-mer synthetic peptides (50 µg/mL) and β2-microglobulin (5 µg/mL; Sigma-Aldrich) at 28°C for 16–18 hours. Subsequently, brefeldin A (10 µg/mL) was added and the cells were incubated at 37°C for another 3 hours, then washed and stained with fluorescence isothiocyanate (FITC)-conjugated mouse anti-human HLA-A2 antibody (SeroTec). […]
Listing of entries alongside the reported T2-binding Ratio of MFI.
measuredMetric: T2-binding Ratio of MFI

> print(dat)
                                  substance  numericreadout
1  LLWVLLLWV [peptide 2, HLA-A*0201-restricted 9-mer synthetic peptide from F protein of RSV-B1 strain]            0.97
2  8: HLA-A*0201-restricted 9-mer synthetic peptide from F protein of RSV-B1 strain (ALLSTNKAV) [compound 8]            1.50
3  5: HLA-A*0201-restricted 9-mer synthetic peptide from F protein of RSV-B1 strain (FMNYTLNNT) [compound 5]            0.96
